System: Raji
Assay: Antiproliferative activity against human Raji cells assessed as reduction in cell growth incubated for 48 hrs by MTS assay
quantityName: pIC50
The meaning of pIC50 here: minus log10 of the concentration in molar units.

See these solved cases before continuing.
smi	pIC50
C=CC(=O)Nc1cccc(Nc2nc(Nc3ccc(OCCSC(=S)NC)cc3)ncc2F)c1	5.14
C=CC(=O)Nc1cccc(Nc2nc(Nc3ccc(NC(=O)CCSC(=S)NCc4cccnc4)cc3)ncc2F)c1	6.47
C=CC(=O)N1CCC[C@@H](n2nc(-c3ccc(Oc4ccccc4)cc3)c3c(N)ncnc32)C1	4.75
C=CC(=O)Nc1cccc(Nc2nc(Nc3ccc(OCCSC(=S)NCC)cc3)ncc2F)c1	5.06
C=CC(=O)Nc1cccc(Nc2nc(Nc3ccc(OCCOC)cc3)ncc2F)c1	4.67

[ask] Would you kindly share the measured pIC50 for "C=CC(=O)Nc1cccc(Nc2nc(Nc3ccc(OCCSC(=S)N4CCN(C(C)C)CC4)cc3)ncc2F)c1" ?
[reply] 5.41

[ask] Would you kindly share the measured pIC50 for "C=CC(=O)Nc1cccc(Nc2nc(Nc3ccc(OCCSC(=S)NCc4ccc(OC)cc4)cc3)ncc2F)c1" ?
[reply] 5.89
